Assay: The drug is tested on Z-013 corresponding to rabbit gut metagenome with ENA study accession number: PRJEB37062 and ENA sample accession number: ERS12561813 for biotransformation under anaerobic condition. The drug concentrations were measured over 9 timepoints collected between 0 and 24 hours of incubation by liquid-chromatography-coupled mass spectrometry (LC–MS); further: call rule not given here
Conditions: 2 µM
recorded-endpoint: Bacterial Biotransformation

Some compounds with known Bacterial Biotransformation results, for comparison:
>  <compound>
C=CC[C@@H]1/C=C(\C)C[C@H](C)C[C@H](OC)[C@H]2O[C@@](O)(C(=O)C(=O)N3CCCC[C@H]3C(=O)O[C@H](/C(C)=C/[C@@H]3CC[C@@H](O)[C@H](OC)C3)[C@H](C)[C@@H](O)CC1=O)[C@H](C)C[C@@H]2OC.O

>  <Bacterial Biotransformation>
Compound NOT metabolized

$$$$
>  <compound>
C[N+]12CCC(CC1)C(OC(=O)C(O)(c1ccccc1)c1ccccc1)C2.[Br-] (configuration not stated) [CLIDINIUM BROMIDE]

>  <Bacterial Biotransformation>
Compound NOT metabolized

$$$$
>  <compound>
CC(C)(C)N.CCC[C@H](N[C@@H](C)C(=O)N1[C@H](C(=O)O)C[C@@H]2CCCC[C@@H]21)C(=O)OCC

>  <Bacterial Biotransformation>
Compound NOT metabolized

$$$$
>  <compound>
COc1cc(C(=O)NCc2ccc(OCCN(C)C)cc2)cc(OC)c1OC [TRIMETHOBENZAMIDE]

>  <Bacterial Biotransformation>
Compound NOT metabolized

$$$$
>  <compound>
CCN1CCCC1CNC(=O)c1cc(S(=O)(=O)CC)c(N)cc1OC (configuration not stated) [AMISULPRIDE]

>  <Bacterial Biotransformation>
Compound NOT metabolized

$$$$

Switching to the query record.
Challenge: For the compound CN1CCC(OC(c2ccccc2)c2ccccc2)CC1 , report Bacterial Biotransformation.
Response given: Compound NOT metabolized

Taken from ChEMBL document CHEMBL5724914.
